Cited source: ChEMBL document CHEMBL3751798

Each record here notes measured EC50.
Tested on: A549
Experiment: Cytotoxicity against human A549 cells after 96 hrs by SRB assay
Assay type: functional, cell-based
Conditions: A549, 96 h
Number only, in µM; omit the unit.

Challenge: Return the recorded EC50 value; entry: CON(C)C(=O)[C@]12CC[C@@H](C)[C@H](C)[C@H]1C1=CC[C@@H]3[C@@]4(C)CC[C@H](OC(C)=O)C(C)(C)[C@@H]4CC[C@@]3(C)[C@]1(C)CC2
Response given: 9.6

Challenge: Return the recorded EC50 value; entry: CC1(C)CC[C@]2(C(=O)NO)CC[C@]3(C)C(=CC[C@@H]4[C@@]5(C)CC[C@H](O)C(C)(C)[C@@H]5CC[C@]43C)[C@@H]2C1
Response given: 4.7

Challenge: Return the recorded EC50 value; entry: CC(=O)O[C@H]1CC[C@]2(C)[C@H]3CC=C4[C@@H]5CC(C)(C)CC[C@]5(C(=O)NO)CC[C@@]4(C)[C@]3(C)CC[C@H]2C1(C)C
Response given: 3.1

Challenge: Return the recorded EC50 value; entry: CC(=O)O[C@H]1CC[C@]2(C)[C@H]3CC=C4[C@@H]5[C@@H](C)[C@H](C)CC[C@]5(C(=O)N(C)O)CC[C@@]4(C)[C@]3(C)CC[C@H]2C1(C)C
Response given: 5.7

Challenge: Return the recorded EC50 value; entry: CONC(=O)[C@]12CCC(C)(C)C[C@H]1C1=CC[C@@H]3[C@@]4(C)CCC(=O)C(C)(C)[C@@H]4CC[C@@]3(C)[C@]1(C)CC2
Response given: 4.8

====

Each record here notes measured pEC50.
Tested on: MCF7
Assay: Cytotoxicity against human MCF7 cells after 96 hrs by SRB assay
Type: functional, cell-based
Conditions: MCF7, 96 h
pEC50 is defined as minus the log10 of a concentration measured in mol/L.

Answered examples (6):
CON(C)C(=O)[C@]12CC[C@@H](C)[C@H](C)[C@H]1C1=CC[C@@H]3[C@@]4(C)CC[C@H](O)C(C)(C)[C@@H]4CC[C@@]3(C)[C@]1(C)CC2 :: 4.73
CC1(C)CC[C@]2(C(=O)NO)CC[C@]3(C)C(=CC[C@@H]4[C@@]5(C)CC[C@H](O)C(C)(C)[C@@H]5CC[C@]43C)[C@@H]2C1 :: 5.09
CC(=O)O[C@H]1CC[C@]2(C)[C@H]3CC=C4[C@@H]5CC(C)(C)CC[C@]5(C(=O)NO)CC[C@@]4(C)[C@]3(C)CC[C@H]2C1(C)C :: 5.02
C[C@H]1[C@H](C)CC[C@]2(C(=O)N(C)O)CC[C@]3(C)C(=CC[C@@H]4[C@@]5(C)CCC(=O)C(C)(C)[C@@H]5CC[C@]43C)[C@H]12 :: 4.75
CON(C)C(=O)[C@]12CCC(C)(C)C[C@H]1C1=CC[C@@H]3[C@@]4(C)CCC(=O)C(C)(C)[C@@H]4CC[C@@]3(C)[C@]1(C)CC2 :: 4.79
CON(C)C(=O)[C@]12CCC(C)(C)C[C@H]1C1=CC[C@@H]3[C@@]4(C)CC[C@H](O)C(C)(C)[C@@H]4CC[C@@]3(C)[C@]1(C)CC2 :: 4.79

Then there is this molecule:
Challenge: Return the recorded pEC50 value; entry: CON(C)C(=O)[C@]12CCC(C)(C)C[C@H]1C1=CC[C@@H]3[C@@]4(C)CC[C@H](OC(C)=O)C(C)(C)[C@@H]4CC[C@@]3(C)[C@]1(C)CC2
Response given: 5.12
